# assayOverview: SMARCA2 (BRM) function activators, primary screen, cell-based, luminescence, high throughput (AID 652017)
# experimentalParameters: MG213 cells, MMTV-luciferase reporter, dexamethasone, overnight; at 9.1 µM
Screen size: about 370,000 compounds; about 3,800 (1%) were called active. Rule as the data show it: active = activation above about 7.8%; inactive = the rest. The sample holds actives, similar compounds and a random draw of the others, so the mix is not that of the screen.
Field 'call' accepts active, inactive

Check out these entries, answers already filled in.
O=C(N/N=C/c1c(O)n(C2CC2)c(=S)[nH]c1=O)c1ccccc1Cl: inactive
Cc1ccccc1CCC[C@@H](CC1CCCCC1)CN(C)C(=O)Oc1ccccc1: inactive

Lab note: next molecule to report on.
State the result this test recorded for O=C(N/N=C/c1c(O)n(C2CC2)c(=S)[nH]c1=O)c1ccccc1 .
inactive
